# test_details: Quantitative High-Throughput drug screen in 47 multiple myeloma cell lines against the NCATS MIPE library collection: VP6_DJ cell viability assay (AID 1919867); note: nearly all actives have a fitted effect of over 40% in size
# reported_conditions: ATP luminescence, 48 h; series mostly up to 45.8 µM
Inconclusive results are not listed. Active and inactive are the calls of the source. Calls come from the whole dose curve; as a rule, active = well fitted cell-killing curve with a large enough effect; inconclusive = small, poorly fitted or top-dose-only effect, or effect the other way; inactive = no such curve, though single readings can be large or run the other way.
Answer with one of the outcomes active, inactive

Known results for molecules:
molecule	label_value
CO[C@H]1C(=O)[C@]2(C)[C@@H](OC)C[C@H]3OC[C@@]3(OC(C)=O)[C@H]2[C@H](OC(=O)c2ccccc2)[C@]2(O)C[C@H](OC(=O)[C@H](O)[C@@H](NC(=O)OC(C)(C)C)c3ccccc3)C(C)=C1C2(C)C	active
NC(CO)(CO)CCc1ccc(Sc2cccc(OCc3ccccc3)c2)cc1Cl	active
CC(C(=O)O)c1ccc(-c2ccccc2)c(F)c1 (centres undefined)	active

Per the records of this test, what outcome belongs to Clc1ccc(CCC(Cn2ccnc2)Sc2c(Cl)cccc2Cl)cc1 (centres undefined) ?
active

Per the records of this test, what outcome belongs to `Nc1ncnc2ccccc12` ?
inactive

Per the records of this test, what outcome belongs to `CCC(CC)[C@H](NC(C)=O)[C@@H]1[C@H](O)[C@@H](C(=O)O)C[C@@H]1N=C(N)N` ?
active
